Collected melting point values appear next to each entry.

Below, 3 compounds whose answers are already recorded.
compound: COc1ccc(C2NC(=O)c3cc(OC(F)(F)F)cc4c3N2CCC4=NO)cc1 (stereo not shown) [Example 50]
result: 232.7 to 234.3 °C

compound: O=C1NC(c2ccc(Cl)cc2)N2CCC(=NO)c3cccc1c32 (stereo not shown) [Example 78]
result: 210.6 to 217.2 °C

compound: COc1ccc(C2NC(=O)c3cccc4c3N2CCC4N)cc1 (stereo not shown) [Example 4]
result: 139.7 to 145.9 °C

# input Please report melting point for the following compound: COc1ccc(C2NC(=O)c3cccc4c3N2CCC4=NO)cc1F (stereo not shown) [Example 66]
# output 260.3 to 261.6 °C

# input Output melting point of COc1ccc(C2NC(=O)c3cccc4c3N2CCC4NC(=O)CN(C)C)cc1 (stereo not shown) [Example 136]
# output 161.4 to 166.6 °C

# input Give the measured melting point for COc1ccc(C2NC(=O)c3cccc4c3N2CCC4=O)cc1O (stereo not shown) [Example 28]
# output 204.7 to 212.2 °C

----------
melting point: recorded values

Check out these entries, answers already filled in.
compound: CON=C1CCN2c3c(cccc31)C(=O)NC2Cc1ccc(OC)cc1 (stereo not shown) [Example 69]
melting point: 190 to 195.9 °C
//
compound: O=C1NC(c2ccc(OCCO)cc2)N2CCC(=NO)c3cccc1c32 (stereo not shown) [Example 60]
melting point: 183.9 to 186.3 °C
//
compound: O=C1NC(c2ccc(F)cc2)N2CCC(=NO)c3cccc1c32 (stereo not shown) [Example 76]
melting point: 247.1 to 252.3 °C
//
compound: O=C(O)c1ccc(C2NC(=O)c3cccc4c3N2CCC4=O)cc1 (stereo not shown) [Example 22]
melting point: 154.3 to 158.9 °C
//
compound: Cc1ccc(C2NC(=O)c3cccc4c3N2CCC4=NO)cc1 (stereo not shown) [Example 77]
melting point: 215.4 to 219 °C

# input Report measured melting point; entry is CON=C1CCN2c3c(cccc31)C(=O)NC2c1ccc(OCCCN(C)C)cc1 (stereo not shown) [Example 53]
# output 164.3 to 167 °C

# input Annotate the compound COc1ccc(C2NC(=O)c3cccc4c3N2CCC4=NO)cc1C (stereo not shown) [Example 57] with its measured melting point.
# output 236 to 243.3 °C

# input For O=C1CCN2c3c1cccc3C(=O)NC2c1ccc(C(F)(F)F)cc1 (stereo not shown) [Example 35] , write its melting point.
# output 203.1 to 208 °C

# input Give the value of melting point reported for the following: CON=C1CCN2c3c(cccc31)C(=O)NC2c1cccnc1 (stereo not shown) [Example 67]
# output 178.6 to 185.9 °C

# input Report melting point for CCOC(=O)COc1ccc(C2NC(=O)c3cccc4c3N2CCC4=NO)cc1 (stereo not shown) [Example 59]
# output 198.6 to 203.3 °C
